Experimental system: T1, human G-CSF receptor (human, UniProt Q99062 25-836)
T1 sequence (looked up): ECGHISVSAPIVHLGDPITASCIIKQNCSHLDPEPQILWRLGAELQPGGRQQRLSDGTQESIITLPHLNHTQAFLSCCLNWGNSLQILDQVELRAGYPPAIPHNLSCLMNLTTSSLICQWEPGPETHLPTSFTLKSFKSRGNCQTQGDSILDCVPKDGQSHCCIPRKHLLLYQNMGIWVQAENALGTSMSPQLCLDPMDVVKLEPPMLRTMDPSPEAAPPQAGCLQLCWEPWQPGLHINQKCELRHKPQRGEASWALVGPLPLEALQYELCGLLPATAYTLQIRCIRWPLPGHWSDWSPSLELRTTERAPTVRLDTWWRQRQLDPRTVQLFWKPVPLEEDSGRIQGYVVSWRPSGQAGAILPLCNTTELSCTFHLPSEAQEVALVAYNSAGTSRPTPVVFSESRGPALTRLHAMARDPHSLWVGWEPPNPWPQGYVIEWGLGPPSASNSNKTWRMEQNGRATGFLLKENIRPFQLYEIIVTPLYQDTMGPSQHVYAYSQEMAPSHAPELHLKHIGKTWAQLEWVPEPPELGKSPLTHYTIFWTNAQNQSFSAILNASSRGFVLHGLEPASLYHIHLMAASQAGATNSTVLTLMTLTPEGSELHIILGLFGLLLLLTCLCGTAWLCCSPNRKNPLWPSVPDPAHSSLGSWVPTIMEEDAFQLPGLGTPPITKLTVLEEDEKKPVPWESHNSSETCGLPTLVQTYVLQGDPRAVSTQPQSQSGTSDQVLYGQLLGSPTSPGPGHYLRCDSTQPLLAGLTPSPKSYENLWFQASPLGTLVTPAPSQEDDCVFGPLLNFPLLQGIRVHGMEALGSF
Assay info: cell-based or functional assay

Binder	EC50 (% of hG-CSF) non-conjugated
G-CSF variant K16/34/40R Q158, non-conjugated (ligand) TPLGPASSLPQSFLLRCLEQVRKIQGDGAALQERLCATYRLCHPEELVLLGHSLGIPWAPLSSCPSQALQLAGCLSQLHSGLFLYQGLLQALEGISPELGPTLDTLQLDVADFATTIWQQMEELGMAPALQPTQGAMPAFASAFQRRAGGVLVASHLKSFLEVSYRVLRHLAQP	20 % of hG-CSF
G-CSF variant K16/34/40R L3K, non-conjugated (ligand) TPKGPASSLPQSFLLRCLEQVRKIQGDGAALQERLCATYRLCHPEELVLLGHSLGIPWAPLSSCPSQALQLAGCLSQLHSGLFLYQGLLQALEGISPELGPTLDTLQLDVADFATTIWQQMEELGMAPALQPTQGAMPAFASAFQRRAGGVLVASHLQSFLEVSYRVLRHLAQP	50 % of hG-CSF
